- assaySystem: LKB1 (Homo sapiens, UniProt Q15831+Q7RTN6)
- Sequence (Q15831 1-433): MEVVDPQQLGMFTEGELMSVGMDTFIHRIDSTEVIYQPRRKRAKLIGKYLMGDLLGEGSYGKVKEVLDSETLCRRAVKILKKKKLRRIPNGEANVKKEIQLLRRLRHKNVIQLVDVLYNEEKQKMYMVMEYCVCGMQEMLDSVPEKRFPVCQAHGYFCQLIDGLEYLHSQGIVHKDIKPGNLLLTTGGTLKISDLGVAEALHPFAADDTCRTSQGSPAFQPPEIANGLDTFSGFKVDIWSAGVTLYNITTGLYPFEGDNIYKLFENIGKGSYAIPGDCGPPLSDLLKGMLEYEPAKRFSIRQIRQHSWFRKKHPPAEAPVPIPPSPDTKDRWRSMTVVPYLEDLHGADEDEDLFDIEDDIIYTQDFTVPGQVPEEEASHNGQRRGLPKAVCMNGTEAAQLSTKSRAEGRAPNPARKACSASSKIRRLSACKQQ
- Sequence (Q7RTN6 1-431): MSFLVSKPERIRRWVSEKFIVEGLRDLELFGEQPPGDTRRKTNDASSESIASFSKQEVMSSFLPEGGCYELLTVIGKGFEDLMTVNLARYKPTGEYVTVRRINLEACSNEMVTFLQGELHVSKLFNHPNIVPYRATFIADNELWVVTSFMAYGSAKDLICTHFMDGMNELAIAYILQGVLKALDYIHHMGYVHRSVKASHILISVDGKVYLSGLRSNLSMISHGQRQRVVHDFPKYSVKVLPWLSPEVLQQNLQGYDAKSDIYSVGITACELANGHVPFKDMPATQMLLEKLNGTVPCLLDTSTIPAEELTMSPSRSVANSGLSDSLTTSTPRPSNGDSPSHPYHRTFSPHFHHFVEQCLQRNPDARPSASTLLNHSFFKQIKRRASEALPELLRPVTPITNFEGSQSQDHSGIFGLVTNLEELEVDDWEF
- Sequence (Q9Y376 1-341 partner): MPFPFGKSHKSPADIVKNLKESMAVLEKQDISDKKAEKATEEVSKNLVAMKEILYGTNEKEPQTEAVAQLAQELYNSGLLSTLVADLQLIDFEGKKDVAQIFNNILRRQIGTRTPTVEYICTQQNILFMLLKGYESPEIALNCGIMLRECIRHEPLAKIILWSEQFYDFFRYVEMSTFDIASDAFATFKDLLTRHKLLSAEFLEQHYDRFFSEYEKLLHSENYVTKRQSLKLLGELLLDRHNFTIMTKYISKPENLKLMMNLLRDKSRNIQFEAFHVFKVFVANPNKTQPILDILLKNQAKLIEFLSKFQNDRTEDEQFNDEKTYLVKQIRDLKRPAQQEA
- methodSummary: in vitro LKB1 functional activity
- Type: biochemical
- cond: APA analogs
observable: LKB1 % Act. Increase

These recorded examples may help you get a feel for the data.
>  <compound>
COP(=O)(CS(=O)(=O)c1ccc(NC(=O)c2nc(-c3ccc(C)s3)cnc2N)cc1)OC

>  <LKB1 % Act. Increase>
C (C=199-1000%)

$$$$
>  <compound>
Cc1ccc(-c2cnc(N)c(C(=O)Nc3ccc(CS(N)(=O)=O)cc3)n2)cc1

>  <LKB1 % Act. Increase>
C (C=199-1000%)

$$$$
>  <compound>
CC(=O)NS(=O)(=O)c1ccc(NC(=O)c2nc(-c3ccc(N4CCN(C)CC4)cc3)cnc2N)cc1

>  <LKB1 % Act. Increase>
C (C=199-1000%)

$$$$
>  <compound>
CCOP(=O)(CS(=O)(=O)c1ccc(NC(=O)c2nc(-c3ccc(C(F)(F)F)cc3)cnc2N)cc1)OCC

>  <LKB1 % Act. Increase>
D (D=<1000%)

$$$$
>  <compound>
CC(=O)NS(=O)(=O)c1ccc(NC(=O)c2nc(-c3cccc(C(N)=O)c3)cnc2N)cc1

>  <LKB1 % Act. Increase>
D (D=<1000%)

$$$$

Kindly review the next compound as well.
Consider the compound shown here: Cc1ccc(-c2cnc(N)c(C(=O)Nc3ccc(S(C)(=N)=O)cc3)n2)cc1 (stereo not shown) What is its recorded LKB1 % Act. Increase? C (C=199-1000%)

----------
- Test system: ACHN cell line
- methodSummary: drug screen of the SelleckChem kinase inhibitor library with and without 5 uM SU-329, Cell-Titer Glo after 5 days
- Type: cell-based
- cond: kinase inhibitor at 200 nM with and without 5 uM SU329; ACHN cell line; 5 days; Cell-Titer Glo
I'd be grateful if you could share measured log2fc for these entries.
Give bare numbers.

These recorded examples may help you get a feel for the data.
>  <compound>
Cc1ccc(Nc2nccc(N(C)c3ccc4c(C)n(C)nc4c3)n2)cc1S(N)(=O)=O.Cl [Pazopanib HCl (GW786034 HCl)]

>  <log2fc>
0.1817

$$$$
>  <compound>
COc1ccc2c(c1)c(C1=C(c3c[nH]c4ccccc34)C(=O)NC1=O)cn2CCCN(C)C

>  <log2fc>
0.08992

$$$$
>  <compound>
Cc1cc(Nc2nc(N[C@@H](C)c3ncc(F)cn3)ncc2Cl)[nH]n1

>  <log2fc>
0.4813

$$$$
>  <compound>
CNc1nc(Nc2cnn([C@H]3CCN(C4COC4)C[C@@H]3F)c2Cl)ncc1C(F)(F)F

>  <log2fc>
0.4092

$$$$
>  <compound>
C=CCc1ccc(O)c(-c2ccc(O)c(CC=C)c2)c1

>  <log2fc>
0.09484

$$$$
>  <compound>
Cn1cnc(N)c2ncnc1-2

>  <log2fc>
0.3232

$$$$
>  <compound>
CNC(=O)Nc1ccc(-c2nc(N3CC4CCC(C3)O4)c3cnn(C4CCC5(CC4)OCCO5)c3n2)cc1

>  <log2fc>
0.04946

$$$$

Consider the compound shown here: "CNC(=O)c1cccc(-c2ccc3c(N4CCOC[C@@H]4C)nc(N4CCOC[C@@H]4C)nc3n2)c1" What is its recorded log2fc? −0.8127

----------
- System: ACHN cell line
- methodSummary: drug screen of the SelleckChem kinase inhibitor library with and without 5 uM SU-329, Cell-Titer Glo after 5 days
- Format: cell-based
- cond: kinase inhibitor at 200 nM with and without 5 uM SU329; ACHN cell line; 5 days; Cell-Titer Glo
I'd be grateful if you could share measured log2fc for these entries.
Numbers only.

These recorded examples may help you get a feel for the data.
>  <compound>
COc1ccc(-c2nc(N3CCOCC3)c3sc(CN(C)c4ncc(C(=O)NO)cn4)cc3n2)cn1

>  <log2fc>
0.5895

$$$$
>  <compound>
Cc1nc(NC(=O)N2CCC[C@H]2C(N)=O)sc1-c1ccnc(C(C)(C)C(F)(F)F)c1

>  <log2fc>
−0.1349

$$$$
>  <compound>
CN1CCN(S(=O)(=O)c2ccc(-c3cnc(N)c(C(=O)Nc4cccnc4)n3)cc2)CC1

>  <log2fc>
0.1991

$$$$

Hello, I would appreciate it if you could give log2fc for each entry below.
1. Cc1ncc(-c2ccnc(Nc3ccc(S(C)(=O)=O)cc3)n2)n1C(C)C
2. CC[C@H](Nc1ncnc2[nH]cnc12)c1nc2cccc(F)c2c(=O)n1-c1ccccc1
3. Cc1cc(F)c(Nc2ncnc3cc(OCc4ccccc4)ccc23)cc1O.Cl [ZM 323881 HCl]
4. C[C@@H](NC(=O)c1ncnc(N)c1Cl)c1ncc(C(=O)Nc2cc(C(F)(F)F)c(Cl)cn2)s1
5. Cc1ccc(-c2nn(C(C)(C)C)c3ncnc(N)c23)cc1
6. CCS(=O)(=O)c1cccc(-c2cc(C(=O)NC3CCN(C)CC3)c(C)c3[nH]c4ncc(C)cc4c23)c1
7. C=CC(=O)Nc1cccc(Oc2nc(Nc3ccc(N4CCN(C)CC4)cc3OC)ncc2Cl)c1 [WZ4002, reference compound]

1.871
0.09838
0.1765
0.5916
0.2956
0.2818
−0.07545

----------
I'd be grateful if you could share measured log2fc for these entries.
- Tested on: ACHN cell line
- methodSummary: drug screen of the SelleckChem kinase inhibitor library with and without 5 uM SU-329, Cell-Titer Glo after 5 days
- Assay type: cell-based
- cond: kinase inhibitor at 200 nM with and without 5 uM SU329; ACHN cell line; 5 days; Cell-Titer Glo
One number for each entry.

Hello, I would appreciate it if you could give log2fc for each entry below.
1. CCN1CCN(Cc2ccc(Nc3ncc(F)c(-c4cc(F)c5nc(C)n(C(C)C)c5c4)n3)nc2)CC1
2. C=CC(=O)Nc1cccc(Oc2nc(Nc3ccc(N4CCN(C)CC4)cc3OC)ncc2Cl)c1 [WZ4003]
3. Cc1nc(Nc2cnn(C3CCNCC3)c2)nc2c1N(C)C(=O)c1cc3ccccc3cc1N2C
4. NC(=O)Nc1cc(-c2cccc(F)c2)sc1C(=O)N[C@H]1CCCNC1

[0.1618, "−0.1405", 0.3141, 0.8568]

Hello, I would appreciate it if you could give log2fc for each entry below.
1. C[C@H](NC(=O)/C(C#N)=C/c1cccc(Br)n1)c1ccccc1
2. Cc1cnc(NC(=O)Nc2cc(Br)c(C)cc2OC[C@@H]2CNCCO2)cn1
3. CN(C)CCOc1ccc(-c2nc(-c3ccncc3)c(-c3ccc4c(c3)CC/C4=N\O)[nH]2)cc1

["−0.4551", "−0.1739", 0.2113]

Hello, I would appreciate it if you could give log2fc for each entry below.
1. COc1cccc2cc(-c3nc([C@H]4CC[C@H](C(=O)O)CC4)n4ncnc(N)c34)[nH]c12
2. NC(=O)Nc1sc(-c2ccc(F)cc2)cc1C(N)=O

−1.494
−0.08928
